Consider the following sequences; for each one, report its apparent KD of MS2 coat protein.
- Tested on: MS2 coat protein
- PROTOCOL_TEXT: apparent KD of MS2 coat protein; designed switch direction (-1 OFF switch, 1 ON switch): 1; higher = weaker reporter binding
- EXPERIMENTAL_SETUP: input ligand: microRNA oligo, concentration not stated
All answers are understood in nM, so give the number only.

Inquiry: So what's the measured apparent KD of MS2 coat protein for this one? UAUCGUUUGAUAGGAUAUCGCUAUACAUGAGGAUCACCCAUGUUUACCACGCUGGUUUUUCAUACCGAGAAGGAUUCUGAUGAA [salish99_SSNG02_r04_004] (Eterna round: R96, puzzle: Same State NG 2)
Reply text: 19.6

Inquiry: I have this sequence here, GUGGUGGGUUGAGGAUAUUGGUUGCAUAUGUUUAACAUGAGGAUCACCCAUGUGGGUUGCGGUUUCGAGAAGGUAGGUUGCUGG [salish99_SSNG2_r04_045bad] (Eterna round: R96, puzzle: Same State NG 2) , and I need its recorded apparent KD of MS2 coat protein.
Reply text: 106

Inquiry: apparent KD of MS2 coat protein lookup needed for UGGUACAUGGGAGGAUAUGGAGUUGAGACAUGAGGAUCACCCAUGUUAUAAAAGCCGAGAGGCAACUAGAAGGCCCAUGUACCU [JL SSNG1 3.92] (Eterna round: R96, puzzle: Same State NG 2) , thanks.
Reply text: 49.9

Inquiry: Data request, read-out apparent KD of MS2 coat protein, for GGCUAGCCUCAAGGAUAUACGCUCUCAACAAAGAACCGACUACAUGAGGAUCACCCAUGUACCAUGUAGAAGGUGAGGUUAGCC [Eternabot solution 4] (Eterna round: R96, puzzle: Same State NG 2)
Reply text: 397

Inquiry: Give its apparent KD of MS2 coat protein value. Item: GUUACAUGAGGAUCACCCAUGUAUGUGUGGGAGUAAGUGUCUUAGGAUAUCUGGUAUUUAAUUUAAGAGAAGGAAGAUUGUUGU [JMF's solution 30] (Eterna round: R96, puzzle: Same State NG 3)
Reply text: 63.7

Inquiry: Recorded apparent KD of MS2 coat protein of GUUACAUGAGGAUCACCCAUGUAUGUGUGGGAGUAAGUGUCUUAGGAUAUCUAUCAUUUAAUGUAAGAGAAGGAAGAUUGUUGU [JMF's solution 97] (Eterna round: R96, puzzle: Same State NG 3) , please.
Reply text: 106

Inquiry: Any idea what apparent KD of MS2 coat protein was measured for AUUGCUAGCACAGGAUAUCAUGCGAAAAUUGCGUGAGAAGGGUGGACUCUGUCAUUCACGGAGGACAUGAGGAUCACCCAUGUC [SameState NG1 #80] (Eterna round: R96, puzzle: Same State NG 1) ?
Reply text: 31.9

Inquiry: If you can, please state the reported apparent KD of MS2 coat protein value of GCAGGAAGCAAAGGAUAUGGAAGAUUACUCAGUCCAGAAGGUUGCUUCUUGGAACAUGAGGAUCACCCAUGUCACCGUUACGGC [Eternabot solution 30] (Eterna round: R96, puzzle: Same State NG 1) .
Reply text: 19

Inquiry: Field request: apparent KD of MS2 coat protein | item: AGUCCAGCCUGAGCUGGACAAAAGCAUGUACAUGAGGAUCACCCAUGUUCAUGUACAAGCUUUUUGCUCGUCUUUAA [salish99_208a_r3_096x] (Eterna round: R96, puzzle: Sensor for hsa-mir-208a)
Reply text: 14.5

Inquiry: Returns the measured apparent KD of MS2 coat protein for the input sequence. Input: GUGCUCGUGUGAGGAUAUGCUUCCGGGUCGGCUGCAGAAGGUACUAUUAUACAUGAGGAUCACCCAUGUCGCUUUUCUCCGGUG [salish99_SSNG1_r04_917] (Eterna round: R96, puzzle: Same State NG 1)
Reply text: 29.2

Inquiry: Endpoint output: apparent KD of MS2 coat protein of GCGGAGAGGUAAGGAUAUCCAUGGAAAAAACAUGAGGAUCACCCAUGUAGGAAAAAAACUAGGAGGGAGAAGGUACCGGGACGC [AK SSNG2-V2-20] (Eterna round: R96, puzzle: Same State NG 2) . Value?
Reply text: 23.4

Inquiry: Using the record for UGAAUGGUGAUAGGAUAUACAUGAGGAAUCCUCGUAGAAGGAUCAUGACAUGAGGAUCACCCAUGUAGCGCUCCGUAGAGCGCA [JL SSNG1 1.21] (Eterna round: R96, puzzle: Same State NG 1) , report its apparent KD of MS2 coat protein.
Reply text: 19.7

Inquiry: Report apparent KD of MS2 coat protein for UGAAUAAUGUUAGGAUAUACAUGAGGAAUCCUCGUAGAAGGAACAUGACAUGAGGAUCACCCAUGUAGCGCUCCGUAGAGCGCA [Mat - Same State NG 1 - JL mod - D49] (Eterna round: R96, puzzle: Same State NG 1) please.
Reply text: 39.5

Inquiry: Entry GUGGUCAGACAUGAGGAUCACCCAUGUGGAAUAAAUAACGUACAGGAUAUUGAAUAUAGGAUAUACAAGAAGGGUAGAUUGGUG (Eterna round: R96, puzzle: Same State NG 3) has what apparent KD of MS2 coat protein?
Reply text: 115

Inquiry: I'd like to know its apparent KD of MS2 coat protein. The sequence in question is AGGAAACAUGAGGAUCACCCAUGUAAGAUAUACACAGGAUAUGCGAAAAGAAACAAAGAAGCAGAAGGGUGGAAAA [75%, Ex sub1, 11] (Eterna round: R96, puzzle: Same State 1)
Reply text: 22.7

Inquiry: Quick one: apparent KD of MS2 coat protein of AAGAAAUCCGCAGGAUAUCCUAAGCCGGGCUUAGGAGAAGGGUGGCCACAUGAGGAUCACCCAUGUAAAGGCUGAAUCACAGCC [Disois] (Eterna round: R96, puzzle: Same State NG 1) ?
Reply text: 268

Inquiry: I am curious: what apparent KD of MS2 coat protein value has been reported for UAGUACAUGCUUUUUGUCUGUCUUAGAUAACAUGAGGAUCACCCAUGUAAGGUGAAAGUUAUAUAGUUUAUGAAUAU [JR_SHM208A_Sub058] (Eterna round: R96, puzzle: Sensor for hsa-mir-208a) ?
Reply text: 309

Inquiry: For the sequence shown here, AUUAUUUCAUGAGGAUAUGGCACCUUAUUGGUGCCAGAAGGCAUGUCUAUAAGACAUGAGGAUCACCCAUGUUUAAAUUAUAUA [Eli NG1ss - 90] (Eterna round: R96, puzzle: Same State NG 1) , give the reported apparent KD of MS2 coat protein.
Reply text: 164
